Data origin, for the record: the RNAGym collection of RNA variant scans (doi:10.7554/elife.80360)

B1: Twister Ribozyme (parent)
chain: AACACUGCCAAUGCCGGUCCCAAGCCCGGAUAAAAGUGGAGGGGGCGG

Variants of: B1
measurement description: self-cleavage, relative activity (ratio to wild type); higher = more cleavage; co-transcriptional
endpoint label: self-cleavage

- A33G G43U: 0.238
- A2G A4C: 0.0432
- C26U G39C: 0.0911
- A4G C46G: 1.15
- U18C A22C: 0.397
- A2U U12C: 0.732
- A2U G36A: 0.158
- G29C G41U: 0.125
- A35C G45A: 0.807
- G17U A22C: 0.406
